target: Glycogen phosphorylase, muscle form (Oryctolagus cuniculus, UniProt P00489); test: Inhibition of rabbit muscle glycogen phosphorylase assessed as release of phosphate from glucose-1-phosphate after 25 mins; details: read-out: IC50
Sequence (P00489 whole entry): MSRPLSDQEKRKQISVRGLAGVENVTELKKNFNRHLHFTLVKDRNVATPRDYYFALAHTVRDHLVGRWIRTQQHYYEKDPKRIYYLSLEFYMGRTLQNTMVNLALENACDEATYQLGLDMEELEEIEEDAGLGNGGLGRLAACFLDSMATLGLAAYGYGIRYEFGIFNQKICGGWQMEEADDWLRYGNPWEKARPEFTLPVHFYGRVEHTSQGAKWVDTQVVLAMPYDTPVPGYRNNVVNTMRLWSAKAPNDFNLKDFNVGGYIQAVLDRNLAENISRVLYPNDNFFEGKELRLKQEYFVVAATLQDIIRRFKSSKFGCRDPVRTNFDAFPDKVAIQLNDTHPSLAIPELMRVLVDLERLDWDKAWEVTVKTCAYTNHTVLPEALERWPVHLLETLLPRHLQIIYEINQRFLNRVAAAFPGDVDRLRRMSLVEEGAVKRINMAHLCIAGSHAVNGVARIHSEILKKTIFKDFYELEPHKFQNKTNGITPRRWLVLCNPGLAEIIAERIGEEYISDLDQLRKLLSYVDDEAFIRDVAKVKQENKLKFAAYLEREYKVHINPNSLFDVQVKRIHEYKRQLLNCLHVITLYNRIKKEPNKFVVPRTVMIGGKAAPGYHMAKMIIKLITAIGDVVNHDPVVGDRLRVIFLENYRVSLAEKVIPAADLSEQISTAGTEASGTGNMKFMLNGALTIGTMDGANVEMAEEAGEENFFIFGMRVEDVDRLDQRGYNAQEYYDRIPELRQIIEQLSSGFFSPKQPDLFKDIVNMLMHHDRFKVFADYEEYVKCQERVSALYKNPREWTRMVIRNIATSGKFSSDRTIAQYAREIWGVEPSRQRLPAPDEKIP
Readout Label: IC50 (µM)

Structure	Target Under Test	IC50, µM
CCCCOC(=O)[C@]12CCC(C)(C)C[C@H]1C1=CC[C@@H]3[C@@]4(C)C[C@H](O)CC(C)(C)[C@@H]4CC[C@@]3(C)[C@]1(C)CC2	Glycogen phosphorylase, muscle form (Oryctolagus cuniculus, UniProt P00489)	13.8
CC1(C)CC[C@]2(C(=O)O)CC[C@]3(C)C(=CC[C@@H]4[C@@]5(C)C[C@H](O)CC(C)(C)[C@@H]5CC[C@]43C)[C@@H]2C1	Glycogen phosphorylase, muscle form (Oryctolagus cuniculus, UniProt P00489)	3.5
C[C@H]1[C@H](C)CC[C@]2(C(=O)O)CC[C@]3(C)C(=CC[C@@H]4[C@@]5(C)C/C(=N\O)CC(C)(C)[C@@H]5CC[C@]43C)[C@H]12	Glycogen phosphorylase, muscle form (Oryctolagus cuniculus, UniProt P00489)	14.7
CCCC(=O)O[C@H]1CC(C)(C)[C@@H]2CC[C@]3(C)[C@H](CC=C4[C@@H]5CC(C)(C)CC[C@]5(C(=O)OCc5ccccc5)CC[C@]43C)[C@@]2(C)C1	Glycogen phosphorylase, muscle form (Oryctolagus cuniculus, UniProt P00489)	108
CC1(C)CC[C@]2(C(=O)OCCCBr)CC[C@]3(C)C(=CC[C@@H]4[C@@]5(C)C[C@H](O)CC(C)(C)[C@@H]5CC[C@]43C)[C@@H]2C1	Glycogen phosphorylase, muscle form (Oryctolagus cuniculus, UniProt P00489)	37.2

[I] C=CCOC(=O)[C@]12CCC(C)(C)C[C@H]1C1=CC[C@@H]3[C@@]4(C)C[C@H](O)CC(C)(C)[C@@H]4CC[C@@]3(C)[C@]1(C)CC2
[II] CC1(C)CC[C@]2(C(=O)OCc3ccccc3)CC[C@]3(C)C(=CC[C@@H]4[C@@]5(C)C[C@@H](OC(=O)c6ccccc6)CC(C)(C)[C@@H]5CC[C@]43C)[C@@H]2C1
[III] CC1(C)CC[C@]2(C(=O)OCc3ccccc3)CC[C@]3(C)C(=CC[C@@H]4[C@@]5(C)C[C@@H](OC(=O)CCC(=O)O)CC(C)(C)[C@@H]5CC[C@]43C)[C@@H]2C1
[IV] CCOC(=O)[C@]12CCC(C)(C)C[C@H]1C1=CC[C@@H]3[C@@]4(C)C[C@H](O)CC(C)(C)[C@@H]4CC[C@@]3(C)[C@]1(C)CC2
## Input Arrange the 4 compounds from largest to smallest IC50. List each label, following the requested order.
## Output III, II, I, IV

[a] C[C@H]1[C@H](C)CC[C@]2(C(=O)OCc3ccccc3)CC[C@]3(C)C(=CC[C@@H]4[C@@]5(C)C[C@@H](O)CC(C)(C)[C@@H]5CC[C@]43C)[C@H]12
[b] C[C@H]1[C@H](C)CC[C@]2(C(=O)O)CC[C@]3(C)C(=CC[C@@H]4[C@@]5(C)CC(=O)CC(C)(C)[C@@H]5CC[C@]43C)[C@H]12
## Input Which record would sort first by descending IC50, a or b ? Mark your answer with the label of the selected entry.
## Output a

[I] CC1(C)CC[C@]2(C(=O)OCCCCBr)CC[C@]3(C)C(=CC[C@@H]4[C@@]5(C)C[C@H](O)CC(C)(C)[C@@H]5CC[C@]43C)[C@@H]2C1
[II] CC1(C)CC[C@]2(C(=O)OCc3ccccc3)CC[C@]3(C)C(=CC[C@@H]4[C@@]5(C)C/C(=N\O)CC(C)(C)[C@@H]5CC[C@]43C)[C@@H]2C1
## Input Please state the entry with greater IC50 among I and II . Could you answer with the label of the item you picked?
## Output I

====

target: UniProtKB P00489; assay: Inhibition of rabbit muscle glycogen phosphorylase assessed as release of phosphate from glucose-1-phosphate after 25 mins; conditions: read-out: IC50
pIC50: −log10 of the molar value.
Readout Label: pIC50

Compound	Target Under Test	pIC50
CCCOC(=O)[C@]12CCC(C)(C)C[C@H]1C1=CC[C@@H]3[C@@]4(C)C[C@H](O)CC(C)(C)[C@@H]4CC[C@@]3(C)[C@]1(C)CC2	UniProtKB P00489	4.56
CC1CC[C@]2(C(=O)OCc3ccccc3)CC[C@]3(C)C(=CC[C@@H]4[C@@]5(C)C[C@H](O)CC(C)(C)[C@@H]5CC[C@]43C)[C@@H]2[C@H]1C (stereo partly specified)	UniProtKB P00489	4.65
CC1(C)CC[C@]2(C(=O)O)CC[C@]3(C)C(=CC[C@@H]4[C@@]5(C)C[C@@H](O)CC(C)(C)[C@@H]5CC[C@]43C)[C@@H]2C1	UniProtKB P00489	5.07
CC1(C)CC[C@]2(C(=O)O)CC[C@]3(C)C(=CC[C@@H]4[C@@]5(C)CC(=O)CC(C)(C)[C@@H]5CC[C@]43C)[C@@H]2C1	UniProtKB P00489	4.83

[1] CCC(=O)O[C@H]1CC(C)(C)[C@@H]2CC[C@]3(C)[C@H](CC=C4[C@@H]5CC(C)(C)CC[C@]5(C(=O)OCc5ccccc5)CC[C@]43C)[C@@]2(C)C1
[2] CCOC(=O)COC(=O)[C@]12CCC(C)(C)C[C@H]1C1=CC[C@@H]3[C@@]4(C)C[C@H](O)CC(C)(C)[C@@H]4CC[C@@]3(C)[C@]1(C)CC2
## Input Lab note: check whether 1 or 2 has the lower measured pIC50. When you have decided, please share the label of that item.
## Output 1
(1: 3.92, 2: 4.65)

====

molecular target: Glycogen phosphorylase, muscle form (Oryctolagus cuniculus); experiment: Inhibition of rabbit muscle glycogen phosphorylase assessed as release of phosphate from glucose-1-phosphate after 25 mins; settings: read-out: IC50
pIC50: −log10 of the molar value.
Readout Label: pIC50

Below, 4 compounds whose answers are already recorded.
Structure	Readout Label	Value
CCCC(=O)O[C@H]1CC(C)(C)[C@@H]2CC[C@]3(C)[C@H](CC=C4[C@@H]5CC(C)(C)CC[C@]5(C(=O)O)CC[C@]43C)[C@@]2(C)C1	pIC50	4.12
CCC(=O)O[C@H]1CC(C)(C)[C@@H]2CC[C@]3(C)[C@H](CC=C4[C@@H]5CC(C)(C)CC[C@]5(C(=O)O)CC[C@]43C)[C@@]2(C)C1	pIC50	4.10
C[C@H]1[C@H](C)CC[C@]2(C(=O)OCc3ccccc3)CC[C@]3(C)C(=CC[C@@H]4[C@@]5(C)CC(=O)CC(C)(C)[C@@H]5CC[C@]43C)[C@H]12	pIC50	4.62
COC(=O)[C@]12CCC(C)(C)C[C@H]1C1=CC[C@@H]3[C@@]4(C)C[C@H](O)CC(C)(C)[C@@H]4CC[C@@]3(C)[C@]1(C)CC2	pIC50	4.55

[A] CC(=O)O[C@H]1CC(C)(C)[C@@H]2CC[C@]3(C)[C@H](CC=C4[C@@H]5CC(C)(C)CC[C@]5(C(=O)O)CC[C@]43C)[C@@]2(C)C1
[B] C[C@H]1[C@H](C)CC[C@]2(C(=O)O)CC[C@]3(C)C(=CC[C@@H]4[C@@]5(C)C[C@@H](O)CC(C)(C)[C@@H]5CC[C@]43C)[C@H]12
[C] CC1(C)CC[C@]2(C(=O)OCc3ccccc3)CC[C@]3(C)C(=CC[C@@H]4[C@@]5(C)CC(=O)CC(C)(C)[C@@H]5CC[C@]43C)[C@@H]2C1
[D] CC1(C)CC[C@]2(C(=O)O)CC[C@]3(C)C(=CC[C@@H]4[C@@]5(C)C/C(=N\O)CC(C)(C)[C@@H]5CC[C@]43C)[C@@H]2C1
[E] CC1(C)CC[C@]2(C(=O)OCCBr)CC[C@]3(C)C(=CC[C@@H]4[C@@]5(C)C[C@H](O)CC(C)(C)[C@@H]5CC[C@]43C)[C@@H]2C1
## Input Put the items in order so that reported pIC50 rises from first to last. Thanks in advance for listing the labels in the requested order.
## Output A, E, D, C, B
(A: 4.37, E: 4.60, D: 4.88, C: 5.49, B: 5.92)
